biological target: CYP3A4 (Homo sapiens); assay: Inhibition of recombinant CYP3A4 (probe nifedipine); type: in vitro ADME; details: recombinant isozyme; mean ± SD of triplicate; unit not given (IC50 classes in μM); read-out: IC50 towards CYP3A4
Sequence (P08684 whole entry): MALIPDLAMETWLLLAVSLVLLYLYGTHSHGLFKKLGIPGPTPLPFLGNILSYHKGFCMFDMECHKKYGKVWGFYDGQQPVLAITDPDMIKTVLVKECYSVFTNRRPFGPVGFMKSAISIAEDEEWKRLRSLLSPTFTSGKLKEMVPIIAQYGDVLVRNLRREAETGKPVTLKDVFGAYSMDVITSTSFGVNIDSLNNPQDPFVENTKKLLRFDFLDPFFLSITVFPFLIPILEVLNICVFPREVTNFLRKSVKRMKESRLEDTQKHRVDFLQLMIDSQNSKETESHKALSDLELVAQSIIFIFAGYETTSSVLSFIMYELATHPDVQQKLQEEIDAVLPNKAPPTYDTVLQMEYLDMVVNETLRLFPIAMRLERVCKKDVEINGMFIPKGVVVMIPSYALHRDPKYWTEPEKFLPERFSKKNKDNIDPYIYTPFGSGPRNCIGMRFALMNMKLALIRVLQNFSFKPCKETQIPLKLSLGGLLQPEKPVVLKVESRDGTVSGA
Give IC50 for every item shown.

- compound: "CC(C)(O)[C@@H]1CC[C@](C)([C@H]2[C@@H](O)C[C@@]3(C)[C@@H]4C[C@H](O[C@@H]5O[C@H](CO)[C@@H](O)[C@H](O)[C@H]5O)[C@H]5C(C)(C)[C@@H](O[C@@H]6OC[C@@H](O)[C@H](O)[C@H]6O)CC[C@@]56C[C@@]46CC[C@]23C)O1 [Compound B2, Astragaloside IV]"
  IC50: "> 100 µM"

// IC50 lookup, key: CC(C)=CCC[C@](C)(O[C@@H]1O[C@H](CO[C@@H]2O[C@H](CO)[C@@H](O)[C@H](O)[C@H]2O)[C@@H](O)[C@H](O)[C@H]1O)[C@H]1CC[C@]2(C)[C@@H]1[C@H](O)C[C@@H]1[C@@]3(C)CC[C@H](O[C@@H]4O[C@H](CO)[C@@H](O)[C@H](O)[C@H]4O[C@@H]4O[C@H](CO)[C@@H](O)[C@H](O)[C@H]4O)C(C)(C)[C@@H]3CC[C@]12C [Compound D5, Ginsenoside Rb1] > 100 µM

---

test: Stability tests of analytes in rat plasma QC samples; format: in vitro ADME; details: rat plasma, nominal conc. 400 nM
For each of the compounds below, state its Three freeze-thaw cycles (-80 °C ↔ 23 °C), Mean±SD.
Numbers only, in nM.

- compound: "CC(C)=CCC[C@](C)(O[C@@H]1O[C@H](CO[C@@H]2O[C@@H](CO)[C@H](O)[C@H]2O)[C@@H](O)[C@H](O)[C@H]1O)[C@H]1CC[C@]2(C)[C@@H]1[C@H](O)C[C@@H]1[C@@]3(C)CC[C@H](O[C@@H]4O[C@H](CO)[C@@H](O)[C@H](O)[C@H]4O[C@@H]4O[C@H](CO)[C@@H](O)[C@H](O)[C@H]4O)C(C)(C)[C@@H]3CC[C@]12C [Compound D3, Ginsenoside Rc]"
  scale unit: "nM"
  test result: 413.15
- compound: "CC(C)=CCC[C@](C)(O[C@@H]1O[C@H](CO[C@@H]2O[C@H](CO)[C@@H](O)[C@H](O)[C@H]2O)[C@@H](O)[C@H](O)[C@H]1O)[C@H]1CC[C@]2(C)[C@@H]1[C@H](O)C[C@@H]1[C@@]3(C)CC[C@H](O[C@@H]4O[C@H](CO)[C@@H](O)[C@H](O)[C@H]4O[C@@H]4O[C@H](CO)[C@@H](O)[C@H](O)[C@H]4O)C(C)(C)[C@@H]3CC[C@]12C [Compound D5, Ginsenoside Rb1]"
  scale unit: "nM"
  test result: 441.95

Fill in Three freeze-thaw cycles (-80 °C ↔ 23 °C), Mean±SD for each of the 3 compounds listed.
1. CC(C)=CCC[C@](C)(O)[C@H]1CC[C@]2(C)[C@@H]1[C@H](O)C[C@@H]1[C@@]3(C)CC[C@H](O)C(C)(C)[C@@H]3[C@@H](O[C@@H]3O[C@H](CO)[C@@H](O)[C@H](O)[C@H]3O[C@@H]3O[C@H](CO)[C@@H](O)[C@H](O)[C@H]3O)C[C@]12C [Compound C7, Ginsenoside Rf]
2. CC(C)=CCC[C@](C)(O)[C@H]1CC[C@]2(C)[C@@H]1[C@H](O)C[C@@H]1[C@@]3(C)CC[C@H](O)C(C)(C)[C@@H]3[C@@H](O[C@@H]3O[C@H](CO)[C@@H](O)[C@H](O)[C@H]3O)C[C@]12C [Compound C1, Ginsenoside Rh1]
3. O=C1CCC[C@@H]2[C@H]3CCCN4CCC[C@@H](CN12)[C@@H]34

398.07
370.01
415.19
